target: Serine/threonine-protein kinase B-raf [V600E] (Homo sapiens, UniProt P15056, V600E); assay: Not found
Sequence (P15056 2-766 V600E limits assumed): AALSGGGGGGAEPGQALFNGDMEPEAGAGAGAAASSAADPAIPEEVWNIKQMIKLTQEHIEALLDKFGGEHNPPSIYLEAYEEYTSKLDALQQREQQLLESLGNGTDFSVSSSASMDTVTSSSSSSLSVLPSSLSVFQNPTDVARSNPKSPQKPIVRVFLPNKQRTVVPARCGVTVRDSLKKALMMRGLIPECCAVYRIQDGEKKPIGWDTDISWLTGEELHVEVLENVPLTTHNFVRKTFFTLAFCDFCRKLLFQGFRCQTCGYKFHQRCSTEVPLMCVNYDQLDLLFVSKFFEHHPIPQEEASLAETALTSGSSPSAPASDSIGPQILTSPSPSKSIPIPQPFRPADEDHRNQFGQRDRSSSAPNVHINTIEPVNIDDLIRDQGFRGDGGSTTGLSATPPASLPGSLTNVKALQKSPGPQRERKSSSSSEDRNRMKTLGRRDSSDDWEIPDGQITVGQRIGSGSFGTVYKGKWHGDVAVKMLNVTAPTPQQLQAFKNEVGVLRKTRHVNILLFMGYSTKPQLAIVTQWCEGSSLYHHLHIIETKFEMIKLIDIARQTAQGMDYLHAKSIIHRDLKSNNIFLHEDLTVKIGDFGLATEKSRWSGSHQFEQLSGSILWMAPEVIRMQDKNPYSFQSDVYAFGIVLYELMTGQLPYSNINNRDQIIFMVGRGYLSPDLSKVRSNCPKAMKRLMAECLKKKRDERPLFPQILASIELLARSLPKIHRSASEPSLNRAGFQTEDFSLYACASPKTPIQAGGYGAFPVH
pIC50: −log10 of the molar value.
ENDPOINT NAME: pIC50

{"COMPOUND": "O=C1CCc2c(Oc3ccc4c(c3)[C@H]3[C@H](NC(=O)c5ccc(CN6CCN(CCO)CC6)c(C(F)(F)F)c5)[C@H]3O4)ccnc2N1 [US9670231, 1.17]", "OBSERVED": 7.98}
{"COMPOUND": "CN(C)C1CCN(Cc2ccc(C(=O)N[C@@H]3[C@H]4Oc5ccc(Oc6ccnc7c6CCC(=O)N7)cc5[C@@H]34)cc2C(F)(F)F)CC1 [US9670231, 1.20]", "OBSERVED": 7.96}
{"COMPOUND": "CN1CCN(Cc2ccc(C(=O)N[C@@H]3[C@H]4Oc5ccc(Oc6ccnc7c6COC(=O)N7)cc5[C@@H]34)cc2C(F)(F)F)CC1 [US9670231, 2.2]", "OBSERVED": 7.96}
{"COMPOUND": "CN(C)[C@@H]1CCN(Cc2ccc(C(=O)N[C@@H]3[C@H]4Oc5ccc(Oc6ccnc7c6CCC(=O)N7)cc5[C@@H]34)cc2C(F)(F)F)C1 [US9670231, 1.10]", "OBSERVED": 7.85}
{"COMPOUND": "CN(C)[C@H]1CCN(Cc2ccc(C(=O)N[C@@H]3[C@H]4Oc5ccc(Oc6ccnc7c6CCC(=O)N7)cc5[C@@H]34)cc2C(F)(F)F)C1 [US9670231, 1.9]", "OBSERVED": 7.77}
{"COMPOUND": "CN1CCN(CCOc2ccc(C(=O)N[C@@H]3[C@H]4Oc5ccc(Oc6ccnc7c6CCC(=O)N7)cc5[C@@H]34)cc2C(F)(F)F)CC1 [US9670231, 1.52]", "OBSERVED": 7.85}

====

Known pIC50 of a selection of compounds
target: RAF proto-oncogene serine/threonine-protein kinase [Y340D,Y341D] (Homo sapiens, UniProt P04049, Y340D/Y341D); assay: Not found
Sequence (P04049 whole entry Y340D/Y341D): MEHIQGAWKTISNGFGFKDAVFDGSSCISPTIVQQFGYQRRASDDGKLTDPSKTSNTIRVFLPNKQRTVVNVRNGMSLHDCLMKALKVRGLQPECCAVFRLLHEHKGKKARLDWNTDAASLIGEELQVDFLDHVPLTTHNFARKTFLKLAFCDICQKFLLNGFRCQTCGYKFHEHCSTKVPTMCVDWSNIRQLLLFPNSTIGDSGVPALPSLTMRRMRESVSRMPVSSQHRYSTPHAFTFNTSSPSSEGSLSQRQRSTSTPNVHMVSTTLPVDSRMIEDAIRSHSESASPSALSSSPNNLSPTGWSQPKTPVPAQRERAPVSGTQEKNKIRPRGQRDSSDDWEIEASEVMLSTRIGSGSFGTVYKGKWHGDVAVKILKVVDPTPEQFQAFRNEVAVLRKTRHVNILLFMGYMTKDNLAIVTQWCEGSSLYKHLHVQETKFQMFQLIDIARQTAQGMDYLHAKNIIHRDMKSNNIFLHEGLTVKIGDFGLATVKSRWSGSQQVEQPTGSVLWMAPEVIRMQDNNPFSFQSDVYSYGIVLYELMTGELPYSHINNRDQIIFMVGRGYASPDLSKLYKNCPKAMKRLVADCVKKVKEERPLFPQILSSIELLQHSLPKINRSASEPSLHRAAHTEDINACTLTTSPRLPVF
Description: Not found
pIC50: −log10 of the molar value.

{"INPUT SMILES": "O=C1CCc2c(Oc3ccc4c(c3)[C@H]3[C@H](NC(=O)c5ccc(CN6CCC[C@H](O)C6)c(C(F)(F)F)c5)[C@H]3O4)ccnc2N1", "pIC50": 8.21}
{"INPUT SMILES": "CN1CCN(CCOc2ccc(C(=O)N[C@@H]3[C@H]4Oc5ccc(Oc6ccnc7c6CCC(=O)N7)cc5[C@@H]34)cc2C(F)(F)F)CC1", "pIC50": 8.60}
{"INPUT SMILES": "CN(C)C1CCN(Cc2ccc(C(=O)N[C@@H]3[C@H]4Oc5ccc(Oc6ccnc7c6CCC(=O)N7)cc5[C@@H]34)cc2C(F)(F)F)CC1", "pIC50": 8.68}
